Data credit: patent US20240216369A1

Tested on: mHTT
METHOD_NOTES: Mutant and total HTT multiplex HTRF assay in Q48 HTT human embryonic stem cell line: mHTT
Format: cell-based
EXPERIMENTAL_CONTEXT: Q48 HTT hESC, 48 hours
Each entry below lists one item and its recorded mHTT pIC50 value.
No unit in the answer, please; the number alone is enough.

CC1(C)CC(Oc2ccc(-c3c(O)cc(-c4cn[nH]c4)cc3F)nn2)CC(C)(C)N1 [Compound 7] = 7.5265
CN(c1ccc(-c2ccc(-n3cccn3)cc2O)nn1)C1CC(C)(C)NC(C)(C)C1 [Compound 19] = 7.2235

Query: Entry Oc1cc(-c2cn[nH]c2)cc(F)c1-c1nnc(N2CC3(CCNCC3)C2)s1 [Compound 36] : reported mHTT pIC50 = ?
Response: 6.996

Query: Again, but for CN(c1ccc(-c2cc3c(cc2O)-c2nc(N)sc2C3)nn1)C1CC(C)(C)NC(C)(C)C1 [Compound 33]
Response: 7.0085

Query: How about this compound: CN(c1ccc(-c2cc3c(=O)nc[nH]c3cc2O)nn1)C1CC(C)(C)NC(C)(C)C1 [Compound 55]
Response: 6.71

Query: Also need CN(c1nnc(-c2ccc(-c3ccn(C)c(=O)c3)cc2O)s1)C1CC(C)(C)NC(C)(C)C1 [Compound 49] , thanks.
Response: 6.819

Query: Param item: CCN1CCC(c2cn3c(=O)cc(-c4ccc5nn(C)cc5c4)nc3c(C)n2)CC1 [Compound 44]
Response: 6.869

Query: Next up: Cc1ccc2cc(O)c(-c3ccc(N(C)C4CC(C)(C)NC(C)(C)C4)nn3)cc2n1 [Compound 15]
Response: 7.349

---

Tested on: tHTT
METHOD_NOTES: Mutant and total HTT multiplex HTRF assay in Q48 HTT human embryonic stem cell line: tHTT
Type: cell-based
EXPERIMENTAL_CONTEXT: Q48 HTT hESC, 48 hours
Method: The multiplex assay is performed in human embryonic stem cells (hESCs) which have been derived by Genea Biocells from human blastocysts of HD donors. […] These detection reagents are incubated with the cell lysate at room temperature for 4-6 hours before having their fluorescence quantified at 615 nm (donor) and 535 nm and 665 nm (acceptor 1 and 2 respectively). The donor/acceptor ratio between these signals indicates the relative quantities of mHTT and tHTT proteins. […]
Could you please mark 1.0 for values of tHTT pIC50 below 7 and 0.0 for values at or above it?

Query: tHTT pIC50 under 7? Item: COc1cc(-c2cn[nH]c2)cc(O)c1-c1ccc(N(C)C2CC(C)(C)NC(C)(C)C2)nn1
Response: 1.0

Query: Another molecule: CN(c1ccc(-c2cc3ccc(C#N)nc3cc2O)nn1)C1CC(C)(C)NC(C)(C)C1
Response: 1.0

Query: Then CC1(C)CC(Oc2ccc(-c3ccc(-c4cn[nH]c4)cc3O)nn2)CC(C)(C)N1 ?
Response: 0.0

Query: Also CC1(C)CC(Oc2ccc(-c3c(O)cc(-c4cn[nH]c4)cc3F)nn2)CC(C)(C)N1 , if possible.
Response: 0.0

---

The entries below come with measured mHTT pIC50 values attached.
System: mHTT
METHOD_NOTES: Mutant and total HTT multiplex HTRF assay in Q48 HTT human embryonic stem cell line: mHTT
Assay type: cell-based
EXPERIMENTAL_CONTEXT: Q48 HTT hESC, 48 hours
Give the figure by itself; no unit, no explanation.

CC1CC(Oc2ccc(-c3ccc(-c4cn[nH]c4)cc3O)nn2)CC(C)N1 (centres unmarked) = 7.1525

Continue with the next compound.
Query: What value of mHTT pIC50 has been reported for the following compound? CN(c1ccc(-c2cc3nccnc3cc2O)nn1)C1CC(C)(C)NC(C)(C)C1
Response: 6.946

---

System: tHTT
METHOD_NOTES: Mutant and total HTT multiplex HTRF assay in Q48 HTT human embryonic stem cell line: tHTT
Format: cell-based
EXPERIMENTAL_CONTEXT: Q48 HTT hESC, 48 hours
Catalogue of tHTT pIC50 readings, one per entry.
Write the number on its own, no unit after it.

Oc1cc(-c2cn[nH]c2)ccc1-c1ccc(N2C[C@H]3CNC[C@H]3C2)nn1 [Compound 74] = 6.02
CN(c1ccc(-c2ccc(-c3ccn(C4CC4)c(=O)c3)cc2O)nn1)C1CC(C)(C)NC(C)(C)C1 [Compound 26] = 7.0435
COc1ccnc2cc(-c3ccc(N(C)C4CC(C)(C)NC(C)(C)C4)nn3)c(O)cc12 [Compound 50] = 6.7835
CC1(C)CC(Nc2ccc(-c3cc4cc(C#N)ccc4s3)nn2)CC(C)(C)N1 [Compound 48] = 6.9
Cc1nc2cc(O)c(-c3ccc(N(C)C4CC(C)(C)NC(C)(C)C4)nn3)cc2nc1C [Compound 42] = 6.885
Oc1cc(-c2cn[nH]c2)cc(F)c1-c1nnc(N2CC3(CCNCC3)C2)s1 [Compound 36] = 6.827
CCN1CCC(c2cn3c(=O)cc(-c4ccc5nn(C)cc5c4)nc3c(C)n2)CC1 [Compound 44] = 6.7695
CC1(C)CC(Nc2ccc(-c3ccc(-n4cccn4)cc3O)nn2)CC(C)(C)N1 [Compound 12] = 7.2825
C[C@@H]1CC(Oc2ccc(-c3ccc(-n4cccn4)cc3O)nn2)C[C@@H](C)N1 (stereo partly drawn) [Compound 70] = 5.806

Turning to the following compound.
Query: Suppose we examine the compound CN(c1nnc(-c2cc3c(cc2O)C(=O)CC3)s1)C1CC(C)(C)NC(C)(C)C1 [Compound 78] ; what tHTT pIC50 value has been reported?
Response: 6.152

---

Test system: tHTT
METHOD_NOTES: Mutant and total HTT multiplex HTRF assay in Q48 HTT human embryonic stem cell line: tHTT
Assay type: cell-based
EXPERIMENTAL_CONTEXT: Q48 HTT hESC, 48 hours
Listed here: items and their measured tHTT pIC50.
Answer field: number only, no words.

COc1ccc2cc(-c3ccc(N(C)C4CC(C)(C)NC(C)(C)C4)nn3)c(O)cc2c1 [Compound 57] = 6.791
CCn1ccc2cc(O)c(-c3ccc(OC4CC(C)(C)NC(C)(C)C4)nn3)cc2c1=O [Compound 24] = 7.168
CN(c1nnc(-c2cc(F)c(-c3cn[nH]c3)cc2Cl)s1)C1CC(C)(C)NC(C)(C)C1 [Compound 22] = 7.1125

Query: Which tHTT pIC50 reading was recorded for the molecule CN(c1ccc(-c2cc3nccnc3cc2O)nn1)C1CC(C)(C)NC(C)(C)C1 [Compound 39] ?
Response: 6.9105

---

Tested on: mHTT
METHOD_NOTES: Mutant and total HTT multiplex HTRF assay in Q48 HTT human embryonic stem cell line: mHTT
Format: cell-based
EXPERIMENTAL_CONTEXT: Q48 HTT hESC, 48 hours
PROPERTY_LABEL: mHTT pIC50
Lab note: record the figure alone, no unit after it.

Query: What mHTT pIC50 value was documented for this compound, CN(c1ccc(-c2cc3ccc(C(N)=O)nc3cc2O)nn1)C1CC(C)(C)NC(C)(C)C1 ?
Response: 7.203

Query: What would you report for CN(c1ccc(-c2cc3ncccc3cc2O)nn1)C1CC(C)(C)NC(C)(C)C1 ?
Response: 7.0275

Query: And for CC1(C)CC(Oc2ccc(-c3cc4ccc(O)cc4cc3O)nn2)CC(C)(C)N1 ?
Response: 6.98
